Test system: CP191
Test: qHTS profiling for inhibitors of Plasmodium falciparum proliferation (AID 504749); note: nearly all actives have a fitted effect of over 60% in size; note: potency is the fitted concentration of half-maximal effect
Settings: P. falciparum in erythrocytes, SYBR Green DNA, 72 h; series mostly up to 28.7 µM
Records with an inconclusive call do not appear. Active and inactive are the calls of the source. Calls come from the whole dose curve; as a rule, active = well fitted inhibition curve with a large enough effect; inconclusive = small, poorly fitted or top-dose-only effect; inactive = flat fitted curve, though single readings scatter.
MEASUREMENT_NAME: Potency

COMPOUND	Potency
CC[C@@]1(O)C[C@H](O[C@H]2C[C@@H](N(C)C)[C@@H](O[C@H]3C[C@@H](O)[C@@H](O[C@H]4CCC(=O)[C@@H](C)O4)[C@@H](C)O3)[C@@H](C)O2)c2c(cc3c(c2O)C(=O)c2c(O)cccc2C3=O)[C@H]1C(=O)OC	199 nM (active)
C[n+]1c2cc(N)ccc2cc2ccc(N)cc21	282 nM (active)
Cc1ccc(S(=O)(=O)NC(=O)NC(C)Cc2ccccc2)cc1 (configuration not stated)	inactive
CO/N=C(/C(=O)N[C@@H]1C(=O)N2C(C(=O)O)=C(CSc3cnns3)CS[C@H]12)c1csc(N)n1	inactive
C[C@H]1OC(OC2C(O)[C@@H](O)C(OC3C(O)[C@@H](O)C(O)O[C@@H]3CO)O[C@@H]2CO)[C@H](O)C(O)C1N[C@H]1C=C(CO)[C@@H](O)[C@H](O)C1O (some centres not stated)	inactive

Noted for CC1(C)SC2C(NC(=O)C(C(=O)O)c3ccccc3)C(=O)N2C1C(=O)O (configuration not stated) : its Potency reads inactive

Noted for C[C@]12CC[C@@H]3c4ccc(O)cc4CC[C@H]3[C@@H]1C[C@H](O)C2O (some centres not stated) : its Potency reads inactive

----------
Would you kindly list Potency for each of these compounds?
Molecular target: Tyrosyl-DNA phosphodiesterase 1 (Homo sapiens) (UniProt Q9NUW8)
Sequence (Q9NUW8 whole entry, looked up): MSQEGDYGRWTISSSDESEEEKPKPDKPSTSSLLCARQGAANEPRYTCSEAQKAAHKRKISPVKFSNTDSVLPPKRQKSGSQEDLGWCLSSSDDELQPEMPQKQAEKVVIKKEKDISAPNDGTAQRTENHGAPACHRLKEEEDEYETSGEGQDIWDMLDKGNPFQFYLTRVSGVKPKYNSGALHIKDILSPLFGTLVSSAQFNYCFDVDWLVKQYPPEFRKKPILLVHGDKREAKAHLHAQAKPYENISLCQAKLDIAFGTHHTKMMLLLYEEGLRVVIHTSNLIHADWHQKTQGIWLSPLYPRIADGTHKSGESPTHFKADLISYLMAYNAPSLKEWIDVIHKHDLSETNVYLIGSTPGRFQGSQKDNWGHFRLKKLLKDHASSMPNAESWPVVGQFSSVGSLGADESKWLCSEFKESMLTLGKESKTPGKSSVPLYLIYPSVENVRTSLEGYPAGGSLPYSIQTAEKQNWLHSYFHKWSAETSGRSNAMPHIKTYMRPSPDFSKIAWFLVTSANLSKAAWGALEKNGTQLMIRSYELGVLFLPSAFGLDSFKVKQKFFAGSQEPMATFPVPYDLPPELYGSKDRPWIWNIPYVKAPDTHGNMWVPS
Assay: Confirmation Assay for Inhibitors of Tyrosyl-DNA Phosphodiesterase (TDP1) (AID 489007); note: potency is the fitted concentration of half-maximal effect; nearly all actives have a fitted effect of over 40% in size
Conditions: recombinant human TDP1 enzymatic activity, dose-response
Description: Human tyrosyl-DNA phosphodiesterase I (Tdp1) is a rational anticancer target because this enzyme is involved in the repair of DNA lesions created by the trapping of human DNA topoisomerase I (Top1) following treatment by anticancer agents such as camptothecins. […] 3 ul of Tdp1 enzyme is dispensed to 1536-well Kalypsys black solid bottom plates. […] The detection is then performed on a PerkinElmer Envision reader.
Inconclusive results are not listed. Calls of active or inactive are those of the source. The call rests on the fitted dose curve; in most records, active means well fitted inhibition curve with a large enough effect; inconclusive means small, poorly fitted or top-dose-only effect; inactive means flat fitted curve, though single readings scatter.

Noted for COc1ccc(N2Cc3cccc(C(=O)N4CCN(C(=O)c5ccco5)CC4)c3C2=O)cc1 : its Potency reads 7.08 µM (active)

Noted for O=C(O)/C=C/c1ccc([N+](=O)[O-])o1 : its Potency reads 50.1 µM (active)

Noted for O=C(/C=C/c1c(Cl)nc2ccccn12)N1CCN(c2ccc(F)cc2)CC1 : its Potency reads 35.5 µM (active)

Noted for COc1ccccc1C1CN(c2ccccc2)N=C1c1cccs1 (centres undefined) : its Potency reads 25.1 µM (active)

Noted for N#C/C(=C\c1ccc(OCc2ccc(F)cc2)cc1)C(=O)Nc1cccc(C(=O)O)c1 : its Potency reads 14.1 µM (active)

Noted for CCOc1ccc(N=Cc2c(C)[nH]n(-c3nc4ccccc4[nH]3)c2=O)cc1 : its Potency reads 31.6 µM (active)

Noted for O=C(O)Cc1ccc(NC(=O)C2CC=CCC2C(=O)O)cc1 (centres undefined) : its Potency reads 14.1 µM (active)

Noted for CN(C)/C=C/C=C1C(=O)CCCC1=O : its Potency reads 89.1 µM (active)

Noted for Cc1ccc(C(=O)O)cc1-c1ccc(/C=C2/NC(=O)N(c3ccccc3)C2=O)o1 : its Potency reads 7.08 µM (active)

Noted for Cc1ccc(/C=C2/C(=O)c3ccc(C(=O)O)cc3C2=O)o1 : its Potency reads 14.1 µM (active)

Noted for Cc1cc(C)c(C#N)c(SCc2ccccc2)n1 : its Potency reads 112 µM (active)

Noted for COc1ccc(N2Cc3cccc(C(=O)O)c3C2=O)cc1 : its Potency reads 2.51 µM (active)

Noted for CC(=O)OCC1=C(C(=O)O)N2C(=O)C(NC(=O)CSc3ccncc3)[C@@H]2SC1 (some centres undefined) : its Potency reads 14.1 µM (active)

Noted for O=C(COc1ccc2oc(-c3ccco3)cc(=O)c2c1)N1CCCCC1 : its Potency reads 79.4 µM (active)

Noted for Cc1ccc(C)n1Cc1ccc(C(=O)O)cc1 : its Potency reads 1.41 µM (active)

Noted for Cc1ccc2nc(-c3ccncc3)cc(C(=O)Nc3ccc(OC(F)F)cc3)c2c1 : its Potency reads 70.8 µM (active)

Noted for CN(C)c1nc(-c2ccccc2)c2cnn(Cc3ccccc3)c2n1 : its Potency reads 63.1 µM (active)

Noted for C=CCc1cccc2cc(C(=O)Nc3ccc(S(=O)(=O)Nc4nnc(CC)s4)cc3)c(=O)oc12 : its Potency reads 15.8 µM (active)

Noted for Cc1ccc(CSc2nnc(SCC(=O)N/N=C/c3c[nH]c4ccccc34)s2)cc1 : its Potency reads 5.62 µM (active)

Noted for C=C(C)C(=O)Nc1cccc(C2=NOC3(C2)C[C@H](C(N)=O)N(C(=O)COc2ccc(Cl)cc2)C3)c1 (some centres undefined) : its Potency reads 12.6 µM (active)

Noted for Cc1c(C(=O)O)sc2nc3n(c(=O)c12)CCC3 : its Potency reads 6.31 µM (active)

Noted for COc1ccc2cc(C(=O)Nc3ccccc3)sc(=O)c2c1OC : its Potency reads 56.2 µM (active)

Noted for Cc1ccccc1Nc1cccc2nonc12 : its Potency reads 100 µM (active)

Noted for O=C(O)C1C2C=CC(CC2)C1C(=O)O (centres undefined) : its Potency reads 7.94 µM (active)

Noted for O=C(CSc1nnc(SCc2ccc(Cl)cc2)s1)N/N=C/c1c[nH]c2ccccc12 : its Potency reads 5.01 µM (active)

Noted for O=C(COc1ccc2oc(-c3ccccc3)cc(=O)c2c1)NCc1ccco1 : its Potency reads 44.7 µM (active)

Noted for CCCCC(=O)Nc1ccc(C(=O)NNC(=O)CCc2ccccc2)cc1 : its Potency reads 100 µM (active)

Noted for Cc1cccc(N2CCN(S(=O)(=O)c3ccc4[nH]c(=O)c(=O)[nH]c4c3)CC2C)c1 (centres undefined) : its Potency reads 39.8 µM (active)

Noted for CC(=O)c1ccc(NC(=O)c2noc3c2CCC3)cc1 : its Potency reads 50.1 µM (active)

Noted for Fc1ccc(C2CC(c3cccs3)=NN2c2ccccc2)cc1 (centres undefined) : its Potency reads 15.8 µM (active)

Noted for Cc1nc(S/C(=C\c2ccc(-c3ccc(C(=O)O)c(Cl)c3)o2)C(=O)O)n[nH]1 : its Potency reads 3.55 µM (active)

Noted for CCN(CC)Cc1c(O)c(Cl)cc2c(C)cc(=O)oc12 : its Potency reads 14.1 µM (active)

Noted for Cc1ccc(C(=O)O)cc1-n1c(C)cc(C=O)c1C : its Potency reads 15.8 µM (active)

Noted for Cc1nn(Cc2ccc(F)cc2)c(C)c1NC(=O)c1cc2ncc(Br)cn2n1 : its Potency reads 44.7 µM (active)

Noted for CC(=O)Nc1ccc2c(COC(=O)CC3Sc4ccccc4NC3=O)cc(=O)oc2c1 (centres undefined) : its Potency reads 15.8 µM (active)

Noted for Cc1ccc(S(=O)(=O)N2CCCCC2)cc1C(=O)Nc1ccc(S(=O)(=O)Nc2ncccn2)cc1 : its Potency reads 14.1 µM (active)

Noted for COc1ccc2nc(N3CCCCC3)c(C#N)cc2c1 : its Potency reads 31.6 µM (active)

Noted for Cc1ccc(C(=O)O)cc1-c1ccc(/C=C2\SC(=O)N(CC(=O)Nc3ccccc3)C2=O)o1 : its Potency reads 6.31 µM (active)

Noted for CC1(C)OC(=O)C(=Cc2ccc(-c3ccc(Cl)c(C(=O)O)c3)o2)C(=O)O1 : its Potency reads 14.1 µM (active)

Noted for Cc1nnc(NC(=O)CCSCCC(=O)Nc2nnc(C)s2)s1 : its Potency reads 15.8 µM (active)

Noted for Cc1cc(C(=O)O)ccc1-c1ccc(/C=C2\NC(=O)N(Cc3ccc(F)cc3)C2=O)o1 : its Potency reads 4.47 µM (active)

Noted for CCOC(=O)c1sc(NC(=O)C2CC=CCC2C(=O)O)nc1C (centres undefined) : its Potency reads 39.8 µM (active)

Noted for O=C(O)c1ccc(-c2ccc(/C=C3\NC(=O)N(Cc4ccc(Cl)cc4)C3=O)o2)cc1Cl : its Potency reads 3.55 µM (active)

Noted for CCOC(=O)N1CCC(N2Cc3cccc(C(=O)NCc4ccc5c(c4)OCO5)c3C2=O)CC1 : its Potency reads 15.8 µM (active)
